Experiment: Pharmacokinetic study in rats after oral administration of SYD extract and its single and combined TCM extracts (UPLC-MS/MS of plasma)
Conditions: male, Sprague-Dawley, rat, plasma, po, 5.43 g/kg, Tmax, rat plasma, oral LJ + SN + AS extract 5.43 g/kg, n = 6
measurement type: Tmax (h)

>  <compound>
C[C@]1(OC(=O)/C=C/c2ccccc2)C[C@@H](O)[C@]2(O)C=CO[C@@H](O[C@@H]3O[C@H](CO)[C@@H](O)[C@H](O)[C@H]3O)[C@@H]21 [Harpagoside, harpagoside]

>  <measurement type>
Tmax

>  <val>
1.63

$$$$
>  <compound>
COc1ccc(CCO[C@@H]2O[C@H](CO[C@@H]3OC[C@H](O)[C@H](O)[C@H]3O)[C@@H](OC(=O)/C=C/c3ccc(O)c(OC)c3)[C@H](O[C@@H]3O[C@@H](C)[C@H](O)[C@@H](O)[C@H]3O)[C@H]2O)cc1O [Angoroside C, angoroside C]

>  <measurement type>
Tmax

>  <val>
1.38

$$$$
>  <compound>
COC(=O)C1=CO[C@@H](O[C@@H]2O[C@H](CO)[C@@H](O)[C@H](O)[C@H]2O)[C@@H]2[C@@H](C)[C@@H](O)C[C@H]12

>  <measurement type>
Tmax

>  <val>
1.5

$$$$

====

Assay: Pharmacokinetic study in rats after oral administration of SYD extract and its single and combined TCM extracts (UPLC-MS/MS of plasma)
Details: male, Sprague-Dawley, rat, plasma, po, 5.43 g/kg, AUC(0–t), rat plasma, oral LJ + SN + AS extract 5.43 g/kg, n = 6
measurement type: AUC(0-t) (ng·h/mL)

>  <molecule>
O=C(/C=C/c1ccc(O)c(O)c1)O[C@@H]1C[C@](O)(C(=O)O)C[C@@H](O)[C@H]1O [Chlorogenic acid, chlorogenic acid]

>  <AUC(0-t) [ng·h/mL]>
2550

$$$$

P: C[C@]1(OC(=O)/C=C/c2ccccc2)C[C@@H](O)[C@]2(O)C=CO[C@@H](O[C@@H]3O[C@H](CO)[C@@H](O)[C@H](O)[C@H]3O)[C@@H]21 [Harpagoside, harpagoside]
Q: COC(=O)C1=CO[C@@H](O[C@@H]2O[C@H](CO)[C@@H](O)[C@H](O)[C@H]2O)[C@@H]2[C@@H](C)[C@@H](O)C[C@H]12 [Loganin, loganin]
R: COc1ccc(CCO[C@@H]2O[C@H](CO[C@@H]3OC[C@H](O)[C@H](O)[C@H]3O)[C@@H](OC(=O)/C=C/c3ccc(O)c(OC)c3)[C@H](O[C@@H]3O[C@@H](C)[C@H](O)[C@@H](O)[C@H]3O)[C@H]2O)cc1O [Angoroside C, angoroside C]
Given 3 molecules, produce a descending ranking by AUC(0-t). Quick reminder: the answer is the labels in the order asked.
Q, R, P

====

Assay: in vivo
Conditions: male, Sprague-Dawley, rat, po, 8.25 g/kg, MRT(0–t)
measurement type: MRT last (h)
Numbers only; they are read as h.

Item C=C[C@H]1[C@H](O[C@@H]2O[C@H](CO)[C@@H](O)[C@H](O)[C@H]2O)OC=C2C(=O)OCC[C@H]21 [Sweroside, sweroside] has what recorded MRT last?
3.3

====

Test: Pharmacokinetic study in rats after oral administration of SYD extract and its single and combined TCM extracts (UPLC-MS/MS of plasma)
Details: male, Sprague-Dawley, rat, plasma, po, 3.98 g/kg extract (8.33 g/kg as herbs), MRT(0–∞), rat plasma, oral SN + AS extract, n = 6
measurement type: MRT inf (h)

1: COc1ccc(CCO[C@@H]2O[C@H](CO[C@@H]3OC[C@H](O)[C@H](O)[C@H]3O)[C@@H](OC(=O)/C=C/c3ccc(O)c(OC)c3)[C@H](O[C@@H]3O[C@@H](C)[C@H](O)[C@@H](O)[C@H]3O)[C@H]2O)cc1O [Angoroside C, angoroside C]
2: C[C@]1(OC(=O)/C=C/c2ccccc2)C[C@@H](O)[C@]2(O)C=CO[C@@H](O[C@@H]3O[C@H](CO)[C@@H](O)[C@H](O)[C@H]3O)[C@@H]21 [Harpagoside, harpagoside]
Hi! Which is lower in terms of MRT inf, the first one 1 or the second one 2 ? Identify your pick by its label.
1
(1: 5.01 h, 2: 41.9 h)
